Values from ChEMBL document CHEMBL4513216

experiment: Toxicity liver stage against HepG2, at 10uM; format: cell-based; design: test concentration 10 uM, cell line HepG2-A16-CD81EGFP; details: human, HepG2-A16-CD81EGFP cells; read-out: INHIBITION
Reported cytotoxicity at 10 µM by item:
outcome-measure: cytotoxicity at 10 µM (%)

>>> test_result("O=C(COc1ccc(Cl)cc1)N1CCOCC1c1ncon1 (stereo unspecified)")
-21
>>> test_result("O=S(=O)(CC1CCOCC1)NCc1ccnc(O)c1")
-5.47
>>> test_result("Brc1cccc(-c2noc(C3COCCO3)n2)c1 (stereo unspecified)")
8.71
>>> test_result("Cc1cc(N2CCN(Cc3cn(C)nc3C)CC2)cc(C2CCNC2)n1 (stereo unspecified)")
0.39
>>> test_result("CCN(C(=O)COc1nc(C(C)(C)C)no1)C1CC1")
3.2
>>> test_result("O=C(C[C@@H]1COC[C@H]2CN(C(=O)c3cccnc3)C[C@@H]12)N1CCOCC1")
-105
>>> test_result("CCn1c(CN2CCN(CC(N)=O)CC2)nc2c(F)cccc21")
-9.88
>>> test_result("O=C(NCCN1CCOCC1)c1cc(-c2ccc3c(c2)CCO3)n[nH]1")
-2.95
>>> test_result("COc1cccc(CN2CCCCCC2c2sccc2C)c1O (stereo unspecified)")
7.18
>>> test_result("CC(C)(C)OC(=O)NCCC(=O)NCC(O)c1cccc(F)c1 (stereo unspecified)")
-2.48
>>> test_result("COCc1ccccc1C(=O)N1CCn2c(nnc2C(C)C)C1")
2.91
>>> test_result("CCCc1nc(C)c(C(=O)NCCn2ccnc2)s1")
8.14
>>> test_result("CN(Cc1ccon1)CC1CCOc2ccccc2C1 (stereo unspecified)")
-6.95
>>> test_result("CCCc1nnc(N(C)CC2CCCN(CC)C2)o1 (stereo unspecified)")
-4.1
>>> test_result("Cc1nc[nH]c1CN1CCn2nc(CN3CC[C@H](F)C3)cc2C1")
5.01
>>> test_result("COc1cccc(NC(=O)NC2(c3noc(CN(C)C)n3)CCCC2)c1")
2.6
>>> test_result("O=C(Nc1ccc(F)cc1)NC1(CCO)CCOCC1")
22.3
>>> test_result("Cc1nnnn1-c1ccc(CC(=O)N2CCOCC(O)C2)cc1 (stereo unspecified)")
-7.46
>>> test_result("Cc1oc(C(=O)O)cc1S(=O)(=O)Nc1ccccc1F")
-2.8
>>> test_result("O=C(C1CC1)N1CC[C@H]2[C@@H]1CCC(=O)N2c1ccccc1")
10.8
>>> test_result("CCN(C(=O)CN1CCCC1c1c(C)nn(C)c1OC)C1CC1 (stereo unspecified)")
-0.54
>>> test_result("CS(=O)(=O)NCCCNC(=O)c1cnc(-c2ccsc2)s1")
-13.7
>>> test_result("CCCn1cc(Cl)c(C(=O)N2C[C@@H](O)[C@H](NC(C)=O)C2)n1")
-0.255
>>> test_result("c1cnc(N2CCC(c3n[nH]c4ncccc34)C2)nc1 (stereo unspecified)")
-4.47
>>> test_result("c1cc(C2CCN(Cc3ccc4c(c3)OCO4)CC2)ccn1")
-2.98
>>> test_result("CCn1c(N)nc2cc(C(=O)N3CCN(c4nccs4)CC3)cnc21")
-17.2
>>> test_result("O=C(C1CCOC1)N1CCC2(CC1)CN(c1ncccn1)CCO2 (stereo unspecified)")
-73.2
>>> test_result("COc1ccc(OCC(=O)NS(=O)(=O)c2ccc(Br)s2)cc1")
-0.383
>>> test_result("O=S1(=O)N=C(SCc2ccc(Cl)cc2)Nc2ccc(F)cc21")
27.6
>>> test_result("COCC(=O)N1CC(c2csc(NC(C)=O)n2)C1")
-8.8
>>> test_result("COc1c(CNCC(O)c2cccc(F)c2)c(C)nn1C (stereo unspecified)")
-6.41
>>> test_result("Cn1cc(CN2CCCC23CCN(C(=O)c2cccn2C)CC3)cn1")
2.88
>>> test_result("c1cc(-c2nc(C3CCN(Cc4ccsc4)CC3)no2)ccn1")
-26.5
>>> test_result("COCCN(C/C=C/c1ccccc1)Cc1ccccn1")
6.82
>>> test_result("COc1ccc(CNCCc2cccc(C(N)=O)c2)cc1C")
-6.81
>>> test_result("c1cc(CCNc2ncnc3c2CCN(Cc2ccoc2)CC3)ccn1")
9.08

====

test: Toxicity liver stage against HepG2, at 10uM; assay type: cell-based; parameters: test concentration 10 uM, cell line HepG2-A16-CD81EGFP; details: human, HepG2-A16-CD81EGFP cells; read-out: INHIBITION
Reported cytotoxicity at 10 µM by item:
outcome-measure: cytotoxicity at 10 µM

>>> test_result("NCCn1nc(C2CCN(C(=O)CC3CCCCC3)C2)c2nccnc21 (stereo not given)")
"-0.645%"
>>> test_result("CN1CCN(Cc2noc(CC3CCc4ccccc43)n2)CC1 (stereo not given)")
"-20.1%"
>>> test_result("Cc1cc(NS(=O)(=O)c2cccs2)ccc1-n1cccc1C(=O)O")
"-2.68%"
>>> test_result("Cc1nccc([C@@H]2C[C@@H]3CCN(S(=O)(=O)C4CC4)C[C@H]3O2)n1")
"-5.9%"
>>> test_result("O=C(c1ccco1)N1C2CCC(O)(CC2)C1CN1CCOCC1 (stereo not given)")
"6.93%"
>>> test_result("NC(=O)CN1CCCN(C(=O)c2ccn(-c3ccc(F)cc3)n2)CC1")
"-5.69%"
>>> test_result("CCOCC1CN(c2ccncn2)Cc2cnn(CC)c21 (stereo not given)")
"3.04%"
>>> test_result("Cc1noc(C2CCC3(CCN(C(=O)c4cnccn4)CC3)O2)n1 (stereo not given)")
"7.19%"
>>> test_result("c1nc2c(c(C3CCOC3)n1)CCN(Cc1ccoc1)CC2 (stereo not given)")
"7.01%"
>>> test_result("O=C(c1ccc(Cl)s1)N1CCC2(CNS(=O)(=O)c3cnccc3O2)C1 (stereo not given)")
"15.5%"
>>> test_result("Cc1nc2ccccc2nc1CN1CCCCC1Cn1cncn1 (stereo not given)")
"-7.36%"
>>> test_result("CN(CCN1CCOC1=O)CC(=O)Nc1cc(F)cc(F)c1")
"-49.5%"
>>> test_result("CCOCc1ccc(NCc2cnc(N3CCN(C)CC3)nc2)cc1")
"12.1%"
>>> test_result("COCc1nc(CNc2cc(C)nc(N3CCCCC3)n2)no1")
"9.84%"
>>> test_result("CCN(Cc1nonc1C)C(=O)c1cnccn1")
"-4.04%"
>>> test_result("Cc1sc(-c2ccco2)nc1C(=O)N1CCCC1Cn1cccn1 (stereo not given)")
"-11.2%"
>>> test_result("Cc1nc(CNC(=O)c2oc3ccccc3c2CN(C)C)oc1C")
"9.46%"
>>> test_result("O=C1NCCN1C1CCCN(Cc2coc(-c3ccc(F)cc3)n2)C1 (stereo not given)")
"8.63%"
>>> test_result("CCOc1ccc(CNC(C)c2c(C)nn(C)c2C)cc1 (stereo not given)")
"-0.00326%"
>>> test_result("c1csc(CN2CCc3nnc(COc4cncnc4)n3CC2)c1")
"2.49%"
>>> test_result("FC(F)(F)CCN(Cc1ccon1)C1CCCC1")
"1.87%"
>>> test_result("Cc1cccc(CN2CCn3cc(CNC(=O)CC4CC4)nc3C2)n1")
"-73.2%"
>>> test_result("Cc1c(C(=O)N[C@@H]2CC[C@@H](N3CCCC3)[C@@H]2O)[nH]c2ccc(F)cc12")
"-1.85%"
>>> test_result("CCOCC1CN(CCOCc2ccccc2)Cc2c1cnn2C (stereo not given)")
"-132%"
>>> test_result("O=C(CCN1CCOC(Cn2cccn2)C1)NC1CCCC1 (stereo not given)")
"4.98%"
>>> test_result("CCC1CN(C(=O)c2ncccc2O)CCC(=O)N1Cc1ccccc1 (stereo not given)")
"3.2%"
>>> test_result("COC1CCN(C(=O)c2csc(-c3ccccc3F)n2)CC1")
"-5.6%"
>>> test_result("CC(C)(C)c1coc([C@@H]2COCCN2Cc2ncc[nH]2)n1")
"2.61%"
>>> test_result("CN1Cc2ccccc2N(CC(O)C(F)(F)F)CCC1=O (stereo not given)")
"0.905%"
>>> test_result("Cc1nnc(C(C)N2CCN(Cc3ccc4c(c3)OCO4)CC2)o1 (stereo not given)")
"-11.6%"
>>> test_result("Cc1ccc(NC2COC3(CCN(Cc4ccn(C)n4)CC3)C2)nn1 (stereo not given)")
"-1.68%"
>>> test_result("Nc1ccc(-c2ccc(F)cc2Cl)cn1")
"-151%"
>>> test_result("O=C(c1cc(=O)n(-c2ccccc2)[nH]1)N1CCCC(c2ccn[nH]2)C1 (stereo not given)")
"-2.21%"
>>> test_result("CCN(C(=O)CCn1cccn1)C1CC1")
"-6.16%"
>>> test_result("O=C1Nc2ccccc2CC12CCN(CCO)C2 (stereo not given)")
"6.62%"
